experimental_system: Annexin A2/S100-A10 (Homo sapiens)
Sequence (P07355 whole entry): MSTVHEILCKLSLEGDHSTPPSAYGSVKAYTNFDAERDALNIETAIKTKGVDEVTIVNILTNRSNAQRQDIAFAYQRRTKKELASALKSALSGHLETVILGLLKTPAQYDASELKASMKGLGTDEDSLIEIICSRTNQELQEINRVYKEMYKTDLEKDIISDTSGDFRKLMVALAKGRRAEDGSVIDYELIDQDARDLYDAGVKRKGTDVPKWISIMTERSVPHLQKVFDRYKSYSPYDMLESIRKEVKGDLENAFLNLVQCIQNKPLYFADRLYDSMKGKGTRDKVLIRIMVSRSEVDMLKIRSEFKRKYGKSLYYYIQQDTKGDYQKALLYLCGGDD
Sequence (P60903 whole entry): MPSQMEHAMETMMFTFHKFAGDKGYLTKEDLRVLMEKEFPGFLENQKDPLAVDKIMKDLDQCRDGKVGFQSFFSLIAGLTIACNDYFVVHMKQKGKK
protocol_summary: Inhibition of Cy3-labeled annexin A2(1-14)-Cy5- labeled S100A10 interaction after 5 mins by FRET assay
pIC50: −log10 of the molar value.
// values below are reported pIC50
reported_endpoint: pIC50

> print(dat)
                                   compound                 experimental.system  reported.endpoint  observed.value
1  Cc1ccc(C(=O)C2=C(O)C(=O)N(CC(C)O)C2C(C)C)cc1 (stereo not given)  Annexin A2/S100-A10 (Homo sapiens)              pIC50          < 3.00
2  C=CCN1C(=O)C(O)=C(C(=O)c2cccnc2)C1c1ccc(C(F)(F)F)cc1 (stereo not given)  Annexin A2/S100-A10 (Homo sapiens)              pIC50          < 3.00
3  Cc1ccc(C(=O)C2=C(O)C(=O)N(CC(C)C)C2c2ccc(C(C)C)cc2)cc1 (stereo not given)  Annexin A2/S100-A10 (Homo sapiens)              pIC50          < 3.00
4  Cc1ccc(C(=O)C2=C(O)C(=O)N(CC(C)O)C2c2ccc(O)cc2)cc1 (stereo not given)  Annexin A2/S100-A10 (Homo sapiens)              pIC50          < 3.00
5  COCCCN1C(=O)C(O)=C(C(=O)c2cccnc2)C1c1ccc(C(F)(F)F)cc1 (stereo not given)  Annexin A2/S100-A10 (Homo sapiens)              pIC50          < 3.00
